# Test system: BS1 (harA::cat)
# test details: MIC by broth microdilution, B. subtilis JH642 harA disruption mutant
# Type: cell-based, Bacillus subtilis
# condition set: BS1 (harA::cat), disruption mutant; broth microdilution, duplicate
# Description: A B. subtilis strain expressing a harA::CAT insertion mutant was produced by single-crossover recombination using integrative plasmid pJPM1. Plasmid pJPM1 is a pSK^− derivative that carries the cat gene of S. aureus plasmid pC194 that confers chloramphenicol resistance in B. subtilis. […] Quantitative assessment of resistance was performed by a broth microdilution method using cation-supplemented Mueller-Hinton broth containing antibiotics, the concentration of which varied in two-fold increments. […]
property: MIC

Guide cases for MIC, answers given:
CC1=C\[C@@H](O)CC(=O)Cc2nc(co2)C(=O)N2CCC=C2C(=O)O[C@H](C(C)C)[C@H](C)/C=C/C(=O)NC\C=C\1 [Virginiamycin A] : 0.78 mg/L
CC(=O)[C@H]1O[C@@H](Oc2ccc(/C=C(\C)C(=O)N[C@@H]3[C@H](O)[C@@H](O)[C@H]4OCO[C@H]4[C@@H]3O)cc2O)[C@@H](O)[C@@H]1O [Hygromycin A] : 15.6 mg/L

**Q:** Report MIC for C/C(=C\c1ccc(O[C@@H]2O[C@H](/C(C)=N/OCc3cccc(Cl)c3)[C@@H](O)[C@@H]2O)c(O)c1)C(=O)N[C@@H]1[C@H](O)[C@@H](O)[C@H]2OCO[C@H]2[C@@H]1O [Compound 3] please.
**A:** 0.78 mg/L
